system: 647-V (Bladder Carcinoma); assay: Bliss excess, mean over the matrix (fraction); higher = more synergy
measured parameter: Bliss excess

CC1(C)CCC(CN2CCN(c3ccc(C(=O)NS(=O)(=O)c4ccc(NCC5CCOCC5)c([N+](=O)[O-])c4)c(Oc4cnc5[nH]ccc5c4)c3)CC2)=C(c2ccc(Cl)cc2)C1 [Venetoclax] + C[C@@H]1COCCN1C2=NC(=NC(=C2)C3(CC3)[S@](=N)(=O)C)C4=C5C=CNC5=NC=C4 [AZD6738] (first compound max 1 µM, 7x7, partner max 10 µM)	-0.0317
COc1cc2c(cc1OCCCCCOc1cc3c(cc1OC)C(=O)N1C=C(C)C[C@H]1C=N3)N=C[C@@H]1CC(C)=CN1C2=O [SG3199] + O=C(c1cc(Cc2n[nH]c(=O)c3ccccc23)ccc1F)N1CCN(C(=O)C2CC2)CC1 [Olaparib] (first compound max 0.001 µM, 7x7, partner max 10 µM)	-0.0289

So what does the record say about Bliss excess for Cc1c2c(nn1C)CSCc1cc(n(C)n1)CSc1cc(c3ccccc3c1)OCCCc1c(C(=O)O)n(C)c3c-2c(Cl)ccc13 [AZD5991] + CCN(CCO)CCCOc1ccc2c(Nc3cc(CC(=O)Nc4cccc(F)c4)[nH]n3)ncnc2c1 [AZD2811] (first compound max 1 µM, 7x7, partner max 1 µM) ? 0.0896

* * *

Entries annotated with measured combination Emax
test system: BICR78 (Oral Cavity Carcinoma); test: combination Emax (second highest fraction inhibited in the dose matrix, 72 h); higher = more inhibition; extreme values may be limits of the assay
Give your answer as a number; write no unit.

Worked examples follow.
CCc1c2c(nc3ccc(O)cc13)-c1cc3c(c(=O)n1C2)COC(=O)[C@]3(O)CC [SN-38] + CN(C)CCCOc1ccc(-c2ccc3ncc4c(c3c2)n(C2CCOCC2)c(=O)n4C)cn1 [AZD0156] (first compound max 0.3 µM, 7x7, partner max 1 µM)	0.786
C[C@@H]1COCCN1c1cc(C2([S@](C)(=N)=O)CC2)nc(-c2ccnc3[nH]ccc23)n1 [AZD6738] + C1CC(C1)(C(=O)[O-])C(=O)[O-].N.N.[Pt+2] [Carboplatin] (first compound max 10 µM, 7x7, partner max 10 µM)	0.58
CN(C)CCCOc1ccc(-c2ccc3ncc4c(c3c2)n(C2CCOCC2)c(=O)n4C)cn1 [AZD0156] + CCN(CCO)CCCOc1ccc2c(Nc3cc(CC(=O)Nc4cccc(F)c4)[nH]n3)ncnc2c1 [AZD2811] (first compound max 1 µM, 7x7, partner max 1 µM)	0.182

Lab note: need combination Emax for N#Cc1cnc(Nc2cc(NC[C@H]3CNCCO3)c(C(F)(F)F)cn2)cn1 [SRA737] + Nc1ccn([C@@H]2O[C@H](CO)[C@@H](O)C2(F)F)c(=O)n1 [Gemcitabine] (first compound max 10 µM, 7x7, partner max 0.3 µM) on BICR78 (Oral Cavity Carcinoma), anyone have it? 0.782

* * *

test system: D-392MG (Glioblastoma); test: combination Emax (second highest fraction inhibited in the dose matrix, 72 h); higher = more inhibition; extreme values may be limits of the assay
Entries annotated with measured combination Emax
Give your answer as a number; write no unit.

C=CCn1c(=O)c2cnc(Nc3ccc(N4CCN(C)CC4)cc3)nc2n1-c1cccc(C(C)(C)O)n1 [AZD1775] + C1CN(CCC1(C(=O)N[C@@H](CCO)C2=CC=C(C=C2)Cl)N)C3=NC=NC4=C3C=CN4 [Capivasertib] (first compound max 3 µM, partner max 3 µM)	0.42

Now for another entry.
So what does the record say about combination Emax for NC1(C(=O)N[C@@H](CCO)c2ccc(Cl)cc2)CCN(c2ncnc3[nH]ccc23)CC1 [Capivasertib] + CCN(CCO)CCCOc1ccc2c(Nc3cc(CC(=O)Nc4cccc(F)c4)[nH]n3)ncnc2c1 [AZD2811] (first compound max 10 µM, 7x7, partner max 1 µM) ? 0.332

* * *

Entries annotated with measured Bliss excess
system: HCT-116 (Colorectal Carcinoma); test: Bliss excess, mean over the matrix (fraction); higher = more synergy
Give your answer as a number; write no unit.

Cc1cc2ncnn2cc1Nc1ncc2c(n1)n(C1CCOCC1)c(=O)n2C [AZD7648] + C[C@@H]1COCCN1C2=NC(=NC(=C2)C3(CC3)[S@](=N)(=O)C)C4=C5C=CNC5=NC=C4 [AZD6738] (first compound max 10 µM, 7x7, partner max 10 µM)	-0.0102
Cc1c2c(nn1C)CSCc1cc(n(C)n1)CSc1cc(c3ccccc3c1)OCCCc1c(C(=O)O)n(C)c3c-2c(Cl)ccc13 [AZD5991] + C[C@@H]1COCCN1C2=NC(=NC(=C2)C3(CC3)[S@](=N)(=O)C)C4=C5C=CNC5=NC=C4 [AZD6738] (first compound max 1 µM, 7x7, partner max 10 µM)	0.0475
CS(=O)(=O)CCNCc1ccc(-c2ccc3ncnc(Nc4ccc(OCc5cccc(F)c5)c(Cl)c4)c3c2)o1 [Lapatinib] + NC1(c2ccc(-c3nc4ccn5c(=O)[nH]nc5c4cc3-c3ccccc3)cc2)CCC1 [MK-2206] (first compound max 10 µM, 7x7, partner max 10 µM)	-0.0347

Now for another entry.
So what does the record say about Bliss excess for Cc1c2c(nn1C)CSCc1cc(n(C)n1)CSc1cc(c3ccccc3c1)OCCCc1c(C(=O)O)n(C)c3c-2c(Cl)ccc13 [AZD5991] + CCN(CCO)CCCOc1ccc2c(Nc3cc(CC(=O)Nc4cccc(F)c4)[nH]n3)ncnc2c1 [AZD2811] (first compound max 1 µM, 7x7, partner max 1 µM) ? 0.0295

* * *

system: HCC1143 (Breast Carcinoma); test: combination Emax (second highest fraction inhibited in the dose matrix, 72 h); higher = more inhibition; extreme values may be limits of the assay
Entries annotated with measured combination Emax
Give your answer as a number; write no unit.

CCN(CCO)CCCOc1ccc2c(Nc3cc(CC(=O)Nc4cccc(F)c4)[nH]n3)ncnc2c1 [AZD2811] + C[C@@H]1COCCN1C2=NC(=NC(=C2)C3(CC3)[S@](=N)(=O)C)C4=C5C=CNC5=NC=C4 [AZD6738] (first compound max 1 µM, 7x7, partner max 10 µM)	0.824

Now for another entry.
So what does the record say about combination Emax for CN(C)CCCOc1ccc(-c2ccc3ncc4c(c3c2)n(C2CCOCC2)c(=O)n4C)cn1 [AZD0156] + O=C(c1cc(Cc2n[nH]c(=O)c3ccccc23)ccc1F)N1CCN(C(=O)C2CC2)CC1 [Olaparib] (first compound max 3 µM, partner max 3 µM) ? 0.203

* * *

test system: WSU-DLCL2 (B-Cell Non-Hodgkin's Lymphoma); test: Bliss excess, mean over the matrix (fraction); higher = more synergy
Entries annotated with measured Bliss excess
Give your answer as a number; write no unit.

Worked examples follow.
COc1cccc(OCCCN)c1-c1cc(Nc2cnc(C#N)cn2)n[nH]1 [Prexasertib] + C=CCn1c(=O)c2cnc(Nc3ccc(N4CCN(C)CC4)cc3)nc2n1-c1cccc(C(C)(C)O)n1 [AZD1775] (first compound max 1 µM, partner max 1 µM)	0.138
NC1(C(=O)N[C@@H](CCO)c2ccc(Cl)cc2)CCN(c2ncnc3[nH]ccc23)CC1 [Capivasertib] + CC(C)n1c(=O)n(C)c2cnc3cc(F)c(-c4ccc(OCCCN5CCCCC5)nc4)cc3c21 [AZD1390] (first compound max 10 µM, 7x7, partner max 0.3 µM)	0.0106
O=C(c1cc(Cc2n[nH]c(=O)c3ccccc23)ccc1F)N1CCN(C(=O)C2CC2)CC1 [Olaparib] + CN(CC[C@H](CSC1=CC=CC=C1)NC2=C(C=C(C=C2)S(=O)(=O)NC(=O)C3=CC=C(C=C3)N4CCC(CC4)[C@H](C5=CC=CC=C5C6=CC=C(C=C6)Cl)O)S(=O)(=O)C(F)(F)F)CCO [AZD4320] (first compound max 10 µM, 7x7, partner max 1 µM)	0.0579

Lab note: need Bliss excess for CCN(CCO)CCCOc1ccc2c(Nc3cc(CC(=O)Nc4cccc(F)c4)[nH]n3)ncnc2c1 [AZD2811] + C=CCn1c(=O)c2cnc(Nc3ccc(N4CCN(C)CC4)cc3)nc2n1-c1cccc(C(C)(C)O)n1 [AZD1775] (first compound max 1 µM, partner max 1 µM) on WSU-DLCL2 (B-Cell Non-Hodgkin's Lymphoma), anyone have it? 0.013

* * *

tested on: SKN-3 (Head and Neck Carcinoma); test: combination Emax (second highest fraction inhibited in the dose matrix, 72 h); higher = more inhibition; extreme values may be limits of the assay
Entries annotated with measured combination Emax

Worked examples follow.
CN(CCO)CC[C@H](CSc1ccccc1)Nc1ccc(S(=O)(=O)NC(=O)c2ccc(N3CCC([C@@H](O)c4ccccc4-c4ccc(Cl)cc4)CC3)cc2)cc1S(=O)(=O)C(F)(F)F [AZD4320] + C=CCn1c(=O)c2cnc(Nc3ccc(N4CCN(C)CC4)cc3)nc2n1-c1cccc(C(C)(C)O)n1 [AZD1775] (first compound max 1 µM, partner max 1 µM)	0.368
Cc1c2c(nn1C)CSCc1cc(n(C)n1)CSc1cc(c3ccccc3c1)OCCCc1c(C(=O)O)n(C)c3c-2c(Cl)ccc13 [AZD5991] + C[C@@H]1COCCN1C2=NC(=NC(=C2)C3(CC3)[S@](=N)(=O)C)C4=C5C=CNC5=NC=C4 [AZD6738] (first compound max 1 µM, 7x7, partner max 10 µM)	0.687

Now for another entry.
So what does the record say about combination Emax for CN(C)CCCOc1ccc(-c2ccc3ncc4c(c3c2)n(C2CCOCC2)c(=O)n4C)cn1 [AZD0156] + CCN(CCO)CCCOc1ccc2c(Nc3cc(CC(=O)Nc4cccc(F)c4)[nH]n3)ncnc2c1 [AZD2811] (first compound max 1 µM, 7x7, partner max 1 µM) ? 0.0518
